Biological target: Mucolipin-3 (Homo sapiens) (UniProt Q8TDD5)
Sequence (whole entry): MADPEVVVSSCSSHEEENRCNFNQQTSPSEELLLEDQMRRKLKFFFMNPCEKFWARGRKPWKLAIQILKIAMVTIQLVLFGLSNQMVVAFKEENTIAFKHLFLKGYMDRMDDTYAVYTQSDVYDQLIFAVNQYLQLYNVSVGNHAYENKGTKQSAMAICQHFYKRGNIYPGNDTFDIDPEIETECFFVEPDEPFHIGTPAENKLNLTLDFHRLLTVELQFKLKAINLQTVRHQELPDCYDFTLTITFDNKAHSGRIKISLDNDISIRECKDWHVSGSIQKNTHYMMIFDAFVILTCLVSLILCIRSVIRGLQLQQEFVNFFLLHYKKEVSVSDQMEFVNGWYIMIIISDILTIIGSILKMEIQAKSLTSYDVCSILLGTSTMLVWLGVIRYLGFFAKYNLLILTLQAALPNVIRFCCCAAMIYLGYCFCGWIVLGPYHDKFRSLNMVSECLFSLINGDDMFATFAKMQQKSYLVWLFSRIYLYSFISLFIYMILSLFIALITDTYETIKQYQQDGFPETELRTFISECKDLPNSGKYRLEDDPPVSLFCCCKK
Assay: Inhibition of human TRPML3-YFP expressed in HEK293 cells at 10 uM stimulated with ML-SA1 for 200 secs followed by incubation for 200 secs with compound and measured by Fura-2AM dye based single cell Calcium imaging assay
Settings: time 200.0 sec
Active and inactive are the calls of the source. The calls are words filed in the database; no cut-off is given here.
Outcomes you can answer with include only these: T = active, F = inactive

Exercise: Record lookup: outcome of this test for COc1ccccc1N1CCN([C@H]2CCCC[C@@H]2NS(=O)(=O)c2cccs2)CC1 (relative stereo) ?
Solution: T
